B1: library; a variant is named by its letters at N, in order (parent)
chain: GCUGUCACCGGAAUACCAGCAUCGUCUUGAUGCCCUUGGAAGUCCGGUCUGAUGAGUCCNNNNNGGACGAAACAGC

variants of: B1; assay: FACS-Seq fitted mean relative fluorescence mCherry/BFP without ligand (log10 relative fluorescence); higher = higher reporter protein expression; conditions: HEK293T, ligand present: no
Outcome: met for FACS-Seq fitted mean (log10) of at least 0.5; not met for anything lower.

Input sequence: GCUGUCACCGGAAUACCAGCAUCGUCUUGAUGCCCUUGGAAGUCCGGUCUGAUGAGUCCACACUGGACGAAACAGC
Class label: met
//
Input sequence: GCUGUCACCGGAAUACCAGCAUCGUCUUGAUGCCCUUGGAAGUCCGGUCUGAUGAGUCCAAGCCGGACGAAACAGC
Class label: met
//
Input sequence: GCUGUCACCGGAAUACCAGCAUCGUCUUGAUGCCCUUGGAAGUCCGGUCUGAUGAGUCCCGGAAGGACGAAACAGC
Class label: not met
//
Input sequence: GCUGUCACCGGAAUACCAGCAUCGUCUUGAUGCCCUUGGAAGUCCGGUCUGAUGAGUCCAUGGUGGACGAAACAGC
Class label: met
//
Input sequence: GCUGUCACCGGAAUACCAGCAUCGUCUUGAUGCCCUUGGAAGUCCGGUCUGAUGAGUCCUCAAAGGACGAAACAGC
Class label: not met
//
Input sequence: GCUGUCACCGGAAUACCAGCAUCGUCUUGAUGCCCUUGGAAGUCCGGUCUGAUGAGUCCGUGAUGGACGAAACAGC
Class label: not met
//
Input sequence: GCUGUCACCGGAAUACCAGCAUCGUCUUGAUGCCCUUGGAAGUCCGGUCUGAUGAGUCCUACGUGGACGAAACAGC
Class label: met
//
Input sequence: GCUGUCACCGGAAUACCAGCAUCGUCUUGAUGCCCUUGGAAGUCCGGUCUGAUGAGUCCGAAGAGGACGAAACAGC
Class label: met
//
Input sequence: GCUGUCACCGGAAUACCAGCAUCGUCUUGAUGCCCUUGGAAGUCCGGUCUGAUGAGUCCACUAUGGACGAAACAGC
Class label: not met
//
Input sequence: GCUGUCACCGGAAUACCAGCAUCGUCUUGAUGCCCUUGGAAGUCCGGUCUGAUGAGUCCCCUGAGGACGAAACAGC
Class label: met
//
Input sequence: GCUGUCACCGGAAUACCAGCAUCGUCUUGAUGCCCUUGGAAGUCCGGUCUGAUGAGUCCUAUAGGGACGAAACAGC
Class label: met
//
Input sequence: GCUGUCACCGGAAUACCAGCAUCGUCUUGAUGCCCUUGGAAGUCCGGUCUGAUGAGUCCAUACGGGACGAAACAGC
Class label: met
//
Input sequence: GCUGUCACCGGAAUACCAGCAUCGUCUUGAUGCCCUUGGAAGUCCGGUCUGAUGAGUCCAAAUGGGACGAAACAGC
Class label: met
//
Input sequence: GCUGUCACCGGAAUACCAGCAUCGUCUUGAUGCCCUUGGAAGUCCGGUCUGAUGAGUCCUGGUGGGACGAAACAGC
Class label: met
//
Input sequence: GCUGUCACCGGAAUACCAGCAUCGUCUUGAUGCCCUUGGAAGUCCGGUCUGAUGAGUCCGAGAAGGACGAAACAGC
Class label: not met
//
Input sequence: GCUGUCACCGGAAUACCAGCAUCGUCUUGAUGCCCUUGGAAGUCCGGUCUGAUGAGUCCCAUACGGACGAAACAGC
Class label: met
//
Input sequence: GCUGUCACCGGAAUACCAGCAUCGUCUUGAUGCCCUUGGAAGUCCGGUCUGAUGAGUCCACAGAGGACGAAACAGC
Class label: not met
//
Input sequence: GCUGUCACCGGAAUACCAGCAUCGUCUUGAUGCCCUUGGAAGUCCGGUCUGAUGAGUCCAGAGAGGACGAAACAGC
Class label: not met
//
Input sequence: GCUGUCACCGGAAUACCAGCAUCGUCUUGAUGCCCUUGGAAGUCCGGUCUGAUGAGUCCCGGCCGGACGAAACAGC
Class label: met
//
Input sequence: GCUGUCACCGGAAUACCAGCAUCGUCUUGAUGCCCUUGGAAGUCCGGUCUGAUGAGUCCAAUCAGGACGAAACAGC
Class label: not met
